- procedure-details: in vivo
- run-parameters: C57BL/6J, mouse, brain, iv, 5 mg/kg

line-notation	Kp at 4 h
CC(C)C[C@H](N)c1cc(C(F)(F)F)ccc1N1CCN(C(=O)[C@@H](Cc2ccc(Cl)cc2)N2CCCC2=O)CC1	0.81
CC(C)C[C@H](N)c1cc(C(F)(F)F)ccc1N1CCN(C(=O)[C@@H](Cc2ccc(Cl)cc2Cl)N2CCNCC2=O)CC1	0.24

---

- procedure-details: in vivo
- run-parameters: C57BL/6J, mouse, brain, iv, 5 mg/kg

line-notation	concentration at 1 h
CC(C)C[C@H](N)c1cc(C(F)(F)F)ccc1N1CCN(C(=O)[C@@H](Cc2ccc(Cl)cc2Cl)N2CCNCC2=O)CC1	41 ng/g
CC(C)C[C@H](N)c1cc(C(F)(F)F)ccc1N1CCN(C(=O)[C@@H](Cc2ccc(Cl)cc2)N2CCCC2=O)CC1	484 ng/g

---

- study-target: Melanocortin receptor 4 (Homo sapiens, UniProt P32245)
- Sequence (P32245 whole entry): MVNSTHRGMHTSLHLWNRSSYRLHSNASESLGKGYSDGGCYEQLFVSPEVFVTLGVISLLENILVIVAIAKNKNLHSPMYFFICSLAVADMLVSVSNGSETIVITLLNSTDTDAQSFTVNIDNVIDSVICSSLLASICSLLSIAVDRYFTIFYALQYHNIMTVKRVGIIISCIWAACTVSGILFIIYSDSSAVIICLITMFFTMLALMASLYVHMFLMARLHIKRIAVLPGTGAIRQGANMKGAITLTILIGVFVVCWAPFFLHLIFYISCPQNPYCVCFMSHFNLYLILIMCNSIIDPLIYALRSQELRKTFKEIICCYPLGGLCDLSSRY
- procedure-details: Displacement of [125I]NDP-MSH from MC4R receptor in HEK293 cells
pKi: −log10 of the molar value.

line-notation	pKi
CC(C)C[C@H](N)c1ccccc1N1CCN(C(=O)[C@@H](Cc2ccc(Cl)cc2)N2CCCC2=O)CC1	7.42
CC(C)C[C@H](N)c1cc(C(F)(F)F)ccc1N1CCN(C(=O)[C@H](Cc2ccc(Cl)cc2)N2CCCC2=O)CC1	8.06
CC(=O)N[C@H](Cc1ccc(Cl)cc1Cl)C(=O)N1CCN(c2c([C@H](N)CC(C)C)cccc2C(F)(F)F)CC1	7.33
CC(C)C[C@@H](N)c1cc(C(F)(F)F)ccc1N1CCN(C(=O)[C@@H](Cc2ccc(Cl)cc2Cl)NC(=O)CCN)CC1	8.00
CC(C)C[C@H](N)c1cccc(F)c1N1CCN(C(=O)[C@@H](Cc2ccc(Cl)cc2Cl)NC(=O)CN)CC1	8.48

Where do the numbers come from? From ChEMBL document CHEMBL1149608.
